# Test system: THRa homodimer (NR concentration 90 nM)
# assay.notes: PBM binding z-score (relative to random genomic background probes); higher = stronger binding; sequences stand for … in GC…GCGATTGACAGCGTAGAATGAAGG
# cutoff 2 applies to PBM binding z-score; >= gives True, < gives False

Illustrative cases are given below, each with its answer.
• AATACAGGGTCACTAGGCCAGAGTGGGTACGAAT = False
• CAGACTAGGTCAAAGGTCAAAGTCGAGCCAACCA = False
• CGAACTAGGCCACCAGGACAGTGAAGAGGTTGGA = False

Ask | Please indicate if the recorded PBM binding z-score for ACTATCAGGCCAAGGGTCACTCAAGATTAGTCCG meets or exceeds 2.
Reply | False

Ask | Please indicate if the recorded PBM binding z-score for CAGAGTAGGTTACGAGGGGGCATTCAGTGCGAAT meets or exceeds 2.
Reply | False

Ask | Please indicate if the recorded PBM binding z-score for CGTCTAAGGTCAAGGTCAGTGAAAGAGACTCGAA meets or exceeds 2.
Reply | True

Ask | Please indicate if the recorded PBM binding z-score for CCTTACGGGTCACTTACAGGTTATAGCATTTGGA meets or exceeds 2.
Reply | False

Ask | Please indicate if the recorded PBM binding z-score for CTATGTAGGTTAAGGGGGTCATCCAGTTTGAAAG meets or exceeds 2.
Reply | False

Ask | Please indicate if the recorded PBM binding z-score for TTACCAAGGTGAAAGGTCGTTGAAGCACGCCTTG meets or exceeds 2.
Reply | False

Ask | Please indicate if the recorded PBM binding z-score for ATCGAACGGTCGAGGTGAGTATAGAGAAAGGGAA meets or exceeds 2.
Reply | False

Ask | Please indicate if the recorded PBM binding z-score for CAAACTAGGTCACAGAGGTCAAAGTTCGTGCGTA meets or exceeds 2.
Reply | True

Ask | Please indicate if the recorded PBM binding z-score for CTCGAAAGGTCAGTTGAGGTGAGTATACGGATAA meets or exceeds 2.
Reply | False

Ask | Please indicate if the recorded PBM binding z-score for TCTAGCAGGCCATAGGGTCACTCAAGAGGTACGG meets or exceeds 2.
Reply | False

Ask | Please indicate if the recorded PBM binding z-score for ATATGTAGGTTACCGGGTCATTCAGTTTGCGCAT meets or exceeds 2.
Reply | True

Ask | Please indicate if the recorded PBM binding z-score for ATCGAAAGGTCGAAGGTGAGTACACCCACCCGAA meets or exceeds 2.
Reply | False

Ask | Please indicate if the recorded PBM binding z-score for TCGAGTAGGTTACGGGGGCATTCAGGGATGAAGA meets or exceeds 2.
Reply | False

Ask | Please indicate if the recorded PBM binding z-score for ACTCGGAGGACAAACGTCAGAGCTACGCCAGTGA meets or exceeds 2.
Reply | False

Ask | Please indicate if the recorded PBM binding z-score for ATATGTAGGTTACATCCGGGTCTTTCAGGCTATG meets or exceeds 2.
Reply | False
